- Experimental Details: Antiproliferative activity against human MDA468 cells
- Type: functional, cell-based
- Measurement Parameters: MDA-MB-468
Please provide measured pIC50 for the entries that follow.
Answers are plain numbers, as −log10 of the molar value.

Take a look at these entries with their results.
Cc1cccc2c1NC(=O)C2(c1ccc(O)cc1)c1ccc(O)cc1 | 7.57
O=C1Nc2c(I)cccc2C1(c1ccc(O)cc1)c1ccc(O)cc1 | 7.21
N#Cc1cccc2c1NC(=O)C2(c1ccc(O)cc1)c1ccc(O)cc1 | 7.24

Give pIC50 for all molecules that follow.
1. O=C1Nc2c(ccc(F)c2F)C1(c1ccc(O)cc1)c1ccc(O)cc1
2. O=C1Nc2c(ccc3c2CCCCC3)C1(c1ccc(O)cc1)c1ccc(O)cc1

*A*
8.52
7.26

For every item below, please supply its pIC50.
1. O=C1Nc2ccccc2C1(c1ccc(O)cc1)c1ccc(O)cc1 [OXYPHENISATINE]
2. COc1ccc(C2(c3ccc(OC)cc3)C(=O)Nc3ccccc32)cc1

*A*
1. 6.95
2. 5.74
